target: DLG1_3, Q12959; test: holdup assay; parameters: key: below the threshold = too weak to quantify, mostly under pKd 3.1 to 4; conditions: plain residues with an end cap or a label only (N-terminal biotin on a linker: ado-ado)
Sequence (Q12959 457-571): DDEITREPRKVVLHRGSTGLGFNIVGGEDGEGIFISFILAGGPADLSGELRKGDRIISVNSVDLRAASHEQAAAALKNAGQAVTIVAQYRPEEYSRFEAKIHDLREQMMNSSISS

{"binder": "CLREWCDAFL [BANF1, O75531]", "pKd": "below the threshold"}
{"binder": "VDSTVKVWTC [TRAF7, Q6Q0C0]", "pKd": "below the threshold"}
{"binder": "MLSKQSESAI [FLVCR1, Q9Y5Y0]", "pKd": 3.77}
{"binder": "DDEDRLVIEI [ZNF831, Q5JPB2]", "pKd": "below the threshold"}
{"binder": "TKGPRGPTRV [SAPCD1, Q5SSQ6]", "pKd": 4.31}
{"binder": "LRSPRTPSEV [OR10G3, Q8NGC4]", "pKd": "below the threshold"}
{"binder": "IPLDGETEEL [MYOZ1, Q9NP98]", "pKd": "below the threshold"}
{"binder": "FNSYSLTGYV [CLDN2, P57739]", "pKd": "below the threshold"}
